The reader will find reported folding stability dG values listed item by item below.
B1: EEHEE_rd3_1049 (parent)
chain: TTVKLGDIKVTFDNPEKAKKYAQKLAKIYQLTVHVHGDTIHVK

Variants of: B1
method: folding stability dG (cDNA display proteolysis); higher = more stable
condition-summary: PBS, room temperature
Answer with a number only, understood to be in kcal/mol.

Worked examples, 10 variants total:
[[record]]
sequence_variant = "K9W"
property_name = "folding stability dG"
test_value = 2.47

[[record]]
sequence_variant = "I28Q"
property_name = "folding stability dG"
test_value = 1.88

[[record]]
sequence_variant = "T1V"
property_name = "folding stability dG"
test_value = 2.14

[[record]]
sequence_variant = "D13C"
property_name = "folding stability dG"
test_value = 2.6

[[record]]
sequence_variant = "Y29I"
property_name = "folding stability dG"
test_value = 0.716

[[record]]
sequence_variant = "T2E"
property_name = "folding stability dG"
test_value = 1.06

[[record]]
sequence_variant = "I28C"
property_name = "folding stability dG"
test_value = 2.92

[[record]]
sequence_variant = "T1N"
property_name = "folding stability dG"
test_value = 1.1

[[record]]
sequence_variant = "A18V"
property_name = "folding stability dG"
test_value = 0.492

[[record]]
sequence_variant = "K20G"
property_name = "folding stability dG"
test_value = 1.13


Q: May I ask what folding stability dG has been recorded for L25R ?
Ans: 0.324

Q: May I ask what folding stability dG has been recorded for D38M ?
Ans: 1.97

Q: May I ask what folding stability dG has been recorded for T39P ?
Ans: 0.457

Q: May I ask what folding stability dG has been recorded for A26W ?
Ans: 1.2

Q: May I ask what folding stability dG has been recorded for G6T ?
Ans: 0.948

Q: May I ask what folding stability dG has been recorded for G6L ?
Ans: 1.61

Q: May I ask what folding stability dG has been recorded for P15G ?
Ans: 1.3
